- Assay summary: small-molecule binders of probe aNOTCH3, primary screen, biochemical, small-molecule microarray, 635/667 nm fluorescence (AID 1120);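 also: probe is a biotin-tagged antibody raised against NOTCH3 rather than NOTCH3 protein; score merges spot fluorescence near 667 nm with spot signal to noise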
- Measurement parameters: higher = more signal
# binarize composite z-score: threshold 0.3 inclusive, high side 1, low side 0

Compound	Category
C=CCC(OC(C)=O)[C@@H]1[C@@H](N(Cc2ccc(-c3ccccc3)cc2)C(=O)c2ccc(C)cc2)c2cc(OCCCO)ccc2N1C(=O)c1ccc(-c2ccccc2)cc1 (some centres not stated)	0

Please check the record `C/C(=N\O)C(=O)NCCCCCNC(=O)OCc1ccccc1` and state if its composite z-score is at or above 0.3.
0

Please check the record O=C1C2C=CC(C(O)Cc3ccccc3)N(Nc3ccc([N+](=O)[O-])cc3)C2C(=O)N1c1ccccc1 (configuration not stated) and state if its composite z-score is at or above 0.3.
1

Please check the record `COc1ccc(CCN2C(=O)[C@@]3(c4ccc([N+](=O)[O-])cc4)CC(=O)N(CC45CC6CC(CC(C6)C4)C5)[C@@H]3c3ccc(CO)cc32)cc1` and state if its composite z-score is at or above 0.3.
1

Please check the record `COCCOC(=O)N1C(=O)[C@@]2(c3cc(C#CCNC(N)=O)ccc31)[C@H](c1ccc(OCCO)cc1)N1[C@H](c3ccccc3)[C@H](c3ccccc3)OC(=O)[C@H]1[C@@H]2C(=O)Nc1nc2ccccc2s1` and state if its composite z-score is at or above 0.3.
0

Please check the record `COCCOC(=O)N1C(=O)[C@@]2(c3cc(C#CCNC(N)=O)ccc31)[C@H](c1ccc(OCCO)cc1)N1[C@H](c3ccccc3)[C@H](c3ccccc3)OC(=O)[C@H]1[C@@H]2C(=O)N1CCCCCCC1` and state if its composite z-score is at or above 0.3.
0

Please check the record `C=C(CCCC)/C(=C/C[C@@H](OC(=O)c1ccncc1)c1ccc(CO)o1)c1cnc2ccccc2c1` and state if its composite z-score is at or above 0.3.
1
